Consider the following molecules; for each one, report its inhibition at 0.04 µM.
Test system: V8 cell
Assay: PARP1 inhibitory activity at cellular level (proliferation inhibition model)
Conditions: read-out: PARP1 inhibitory activity at cellular level (%)
The response must be a number in % with no trailing unit.

Consider CC1c2nnc(C(F)(F)F)n2CCN1C(=O)c1cc(Cc2n[nH]c(=O)c3ccccc23)ccc1F (stereo not drawn) . Its measured inhibition at 0.04 µM is 53.1

Consider COC1CN(C(=O)c2cc(Cc3n[nH]c(=O)c4ccccc34)ccc2F)Cc2nnc(C(F)(F)F)n21 (stereo not drawn) . Its measured inhibition at 0.04 µM is 31.8

Consider CC1CN(C(=O)c2cc(Cc3n[nH]c(=O)c4ccccc34)ccc2F)Cc2nnc(C(F)(F)F)n21 (racemic) . Its measured inhibition at 0.04 µM is 61.2
